Sequence of the target: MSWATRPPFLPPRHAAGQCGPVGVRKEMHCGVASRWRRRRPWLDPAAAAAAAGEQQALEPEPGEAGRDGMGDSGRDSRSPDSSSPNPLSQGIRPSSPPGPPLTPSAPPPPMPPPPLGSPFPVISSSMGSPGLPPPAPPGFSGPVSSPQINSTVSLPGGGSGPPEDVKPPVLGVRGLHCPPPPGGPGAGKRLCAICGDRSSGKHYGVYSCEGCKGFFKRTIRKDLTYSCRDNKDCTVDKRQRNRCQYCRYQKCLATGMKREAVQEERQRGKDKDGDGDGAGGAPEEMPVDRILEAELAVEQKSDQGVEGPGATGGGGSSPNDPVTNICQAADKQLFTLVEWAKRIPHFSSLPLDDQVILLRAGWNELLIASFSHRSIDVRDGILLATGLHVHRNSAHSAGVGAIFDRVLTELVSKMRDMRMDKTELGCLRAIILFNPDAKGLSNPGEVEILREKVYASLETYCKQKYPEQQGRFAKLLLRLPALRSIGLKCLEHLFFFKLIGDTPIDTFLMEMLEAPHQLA
Could you mark each record MET if its Ki falls strictly under 80 nM, and NOT MET if it equals or exceeds it?

Data request: # TODO verify Ki < 80 nM strictly for this molecule: CCOc1cc2c(cc1\C(CC)=C(F)/C=C/C(C)=C/C(=O)O)C=CCC2(C)C
Data returned: MET

Data request: # TODO verify Ki < 80 nM strictly for this molecule: CCOc1cc2c(cc1\C(CC)=C(F)/C=C/C(C)=C/C(=O)O)C(C(C)(C)C)=CCC2(C)C
Data returned: MET

Data request: # TODO verify Ki < 80 nM strictly for this molecule: CCOc1cc2c(cc1\C(C)=C/C=C/C(C)=C/C(=O)O)C(C(C)C)=CC(C)(C)O2
Data returned: NOT MET

Data request: # TODO verify Ki < 80 nM strictly for this molecule: COc1cc2c(cc1\C(C)=C(F)/C=C/C(C)=C/C(=O)O)C(C(C)C)=CC(C)(C)O2
Data returned: MET

Data request: # TODO verify Ki < 80 nM strictly for this molecule: COc1cc2c(cc1\C(C)=C(F)/C=C/C(C)=C/C(=O)O)C(C(C)(C)C)=CC(C)(C)O2
Data returned: NOT MET

Data request: # TODO verify Ki < 80 nM strictly for this molecule: CCOc1cc2c(cc1\C(CC)=C(F)/C=C/C(C)=C/C(=O)O)C(CC)=CCC2(C)C
Data returned: MET

Data request: # TODO verify Ki < 80 nM strictly for this molecule: CCC1=CC(C)(C)Oc2cc(OC)c(\C(C)=C/C=C/C(C)=C/C(=O)O)cc21
Data returned: NOT MET

Data request: # TODO verify Ki < 80 nM strictly for this molecule: COc1c(\C(C)=C(F)/C=C/C(C)=C/C(=O)O)cc2c(c1Cl)OC(C)(C)C=C2C(C)C
Data returned: MET

Data request: # TODO verify Ki < 80 nM strictly for this molecule: CC/C(=C(F)/C=C/C(C)=C/C(=O)O)c1cc2c(cc1OC)OC(C)(C)C=C2C(C)C
Data returned: MET

Data request: # TODO verify Ki < 80 nM strictly for this molecule: CCCOc1cc2c(cc1\C(C)=C(F)/C=C/C(C)=C/C(=O)O)C(C(C)(C)C)=CCC2(C)C
Data returned: NOT MET

Data request: # TODO verify Ki < 80 nM strictly for this molecule: CCOc1cc2c(cc1\C(C)=C(F)/C=C/C(C)=C/C(=O)O)C(CC)=CC(C)(C)O2
Data returned: NOT MET

Data request: # TODO verify Ki < 80 nM strictly for this molecule: CC/C(=C(F)/C=C/C(C)=C/C(=O)O)c1cc2c(c(Cl)c1OC)OC(C)(C)C=C2C(C)C
Data returned: MET

Data request: # TODO verify Ki < 80 nM strictly for this molecule: CCOc1cc2c(cc1\C(C)=C(F)/C=C/C(C)=C/C(=O)O)C(C)=CCC2(C)C
Data returned: MET

Data request: # TODO verify Ki < 80 nM strictly for this molecule: CCOc1cc2c(cc1\C(CC)=C(F)/C=C/C(C)=C/C(=O)O)C(C)=CC(C)(C)O2
Data returned: NOT MET

Data request: # TODO verify Ki < 80 nM strictly for this molecule: CCOc1cc2c(cc1\C(C)=C(F)/C=C/C(C)=C/C(=O)O)C=CCC2(C)C
Data returned: NOT MET
